assay: Plasma PK after single oral administration in solution, cynomolgus monkey; assay type: in vivo; conditions: male, plasma, single oral 4.0 mg/kg, solution in 5% ethanol/20% propylene glycol/45% PEG 300/30% 0.01 N HCl, mean ± SD, n=3, read-out: AUC0-24h
recorded_endpoint: AUC(0-t) (µM·h)

smiles_notation	recorded_endpoint	assay_result
CC(C)(C#Cc1ccc(-c2ccc(Cl)c3c(NS(C)(=O)=O)nn(CC(F)(F)F)c23)c([C@H](Cc2cc(F)cc(F)c2)NC(=O)Cn2nc(C(F)(F)F)c3c2C(F)(F)[C@@H]2C[C@H]32)n1)S(C)(=O)=O	AUC(0-t)	298
